target: Cytochrome P450 2C19 (Homo sapiens, UniProt P33261); experiment: Cytochrome panel assay with activity outcomes. Panel member name: p450-cyp2c19 Compounds with AC50 equal or less than 10 uM are considered active; assay type: functional; details: read-out: AC50
Sequence (P33261 whole entry): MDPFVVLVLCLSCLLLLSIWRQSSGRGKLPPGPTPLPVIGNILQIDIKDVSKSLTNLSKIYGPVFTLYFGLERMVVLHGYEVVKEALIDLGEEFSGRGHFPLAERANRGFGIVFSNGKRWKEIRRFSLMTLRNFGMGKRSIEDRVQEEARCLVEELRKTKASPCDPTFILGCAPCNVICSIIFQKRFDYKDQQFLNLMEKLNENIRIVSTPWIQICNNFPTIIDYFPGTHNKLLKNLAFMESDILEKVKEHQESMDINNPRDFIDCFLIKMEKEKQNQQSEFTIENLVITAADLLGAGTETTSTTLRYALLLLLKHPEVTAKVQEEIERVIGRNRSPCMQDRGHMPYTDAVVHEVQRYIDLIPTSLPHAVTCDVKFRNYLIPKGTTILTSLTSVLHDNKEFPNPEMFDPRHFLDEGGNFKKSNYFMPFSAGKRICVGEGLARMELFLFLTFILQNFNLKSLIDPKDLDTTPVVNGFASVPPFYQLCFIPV
REPORTED PROPERTY: AC50

Oc1ccc2[nH]cc(CCCCN3CC=C(c4ccccc4)CC3)c2c1 = 20 µM (inconclusive)
Cc1ccsc1-c1nc(-c2ccccc2)c(-c2ccccc2)[nH]1 = 10 µM (inconclusive)
Cc1cccc2nc(C(F)(F)F)nc(=O)n12 = 28.2 µM (inconclusive)
CCCC[C@H]1C(=O)N(c2ccccc2)N(c2ccc(O)cc2)C1=O = 15.8 µM (inconclusive)
CCCc1ccc(-c2cc(C(=O)NN3CCOCC3)c3ccccc3n2)cc1 = 15.8 µM (inconclusive)
CCSc1c(C(=O)NC)ccc2c1C(=O)c1ccccc1C2=O = 28.2 µM (inconclusive)
CC(=O)c1cc(NC(=O)c2ccccc2)c(=O)oc1/C=C/N(C)C = 39.8 µM (inconclusive)
COCCN=C(S)N1C2CCC1CC(NC(=O)NC13CC4CC(CC(C4)C1)C3)C2 (stereo not given) = 20 µM (inconclusive)
O=C(c1ccco1)N1CCC2(CC1)CN(c1ccc(-c3ccccc3)cc1)C2 = 0.158 µM (inconclusive)
CC(C)(C)C(=O)N(CCN(C(=O)C(C)(C)C)c1ccccc1)c1ccccc1 = 8.91 µM (inconclusive)

Would you mind giving AC50 for every molecule in the list below?
1. O=C(N/N=C/c1ccc(Sc2nc3ccccc3s2)c([N+](=O)[O-])c1)c1ccccn1
2. O=C1OCc2cccc3cccc1c23
3. CC(C)N1C(=O)/C(=C\c2c[nH]c3ccccc23)S/C1=N\c1ccccc1
4. COc1ccc2cc(C#N)c(SCC(=O)NNC(=O)Cc3ccccc3)nc2c1
5. O=c1cnc2cnc(N3CCOCC3)nc2n1Cc1cccs1
6. COC(=O)c1cccc(NC(=O)/C=C/c2cccc([N+](=O)[O-])c2)c1
7. CC1(C)C2([N+](=O)[O-])CN3CC1([N+](=O)[O-])CN(C2)C3c1ccccc1 (stereo not given)
8. O=C(c1cccc(F)c1)N1CCC[C@@]2(CCN(c3ccncc3)C2)C1

Data returned:
["7.08 µM (inconclusive)", "39.8 µM (inconclusive)", "2 µM (inconclusive)", "0.0398 µM (inconclusive)", "31.6 µM (inconclusive)", "5.01 µM (inconclusive)", "0.355 µM (inconclusive)", "2.51 µM (inconclusive)"]

Could you report AC50 for every entry in the following list?
1. O=C(O)/C=C\c1c2ccc(=O)c(O)c-2oc2c(O)c(O)ccc12
2. COc1ccc(N2CCN(Cc3nc4c(c(=O)[nH]c(=O)n4C)n3CCCc3ccccc3)CC2)cc1
3. Cc1ccc(NC(=O)/C(=C\c2cccc([N+](=O)[O-])c2)NC(=O)c2cccs2)cc1
4. COc1ccc(OC)c(CNC(=O)CCNC(=O)Cn2ccc3ccccc3c2=O)c1

Data returned:
1. 3.16 µM (inconclusive)
2. 28.2 µM (inconclusive)
3. 17.8 µM (inconclusive)
4. 31.6 µM (inconclusive)

Parameter requested: AC50. Apply to each item below.
1. COCCn1c(=O)c(-c2cccc(F)c2)nc2cncnc21
2. CC(C)n1nnc2ccccc2c1=O
3. CCN(CCCl)Cc1ccccc1Br
4. O=C(NCC1CCCO1)c1ccc(CS(=O)(=O)Cc2ccc(F)cc2)o1 (stereo not given)
5. COc1ccc(-c2cc(C(F)(F)F)n3ncc(C(=O)NCC4CCCO4)c3n2)cc1OC (stereo not given)
6. Cc1nc2cnc(Oc3cccc(Cl)c3)nc2n(C2CC2)c1=O
7. Cn1c(=O)c(-c2ccccc2)nc2cnc(N3CCOCC3)nc21
8. CCCN1CC=C2C(C#N)=C(N)C(C#N)(C#N)C(c3cc(OC)ccc3OC)C2C1 (stereo not given)

Data returned:
1: 39.8 µM (inconclusive); 2: 39.8 µM (inconclusive); 3: 39.8 µM (inconclusive); 4: 39.8 µM (inconclusive); 5: 14.1 µM (inconclusive); 6: 31.6 µM (inconclusive); 7: 39.8 µM (inconclusive); 8: 14.1 µM (inconclusive)

Can you give me AC50 for all of these, one by one?
1. Cn1c(=O)cnc2cnc(Nc3ccccc3)nc21
2. O=C(c1cccc(F)c1)N1CCC2(CCCN(c3ccc(-c4ccccc4)cc3)C2)CC1
3. Cc1ccc(N2C(=O)/C(=C/Nn3cnnc3)c3ccccc3C2=O)cc1
4. Cc1ccc(NC(=S)c2nc3ccccc3s2)cc1
5. CN1CCCC2(CCN(C(=O)c3cc(C(F)(F)F)cc(C(F)(F)F)c3)CC2)C1

Data returned:
7.94 µM (inconclusive)
20 µM (inconclusive)
10 µM (inconclusive)
0.0251 µM (inconclusive)
25.1 µM (inconclusive)
